Give Ki for every item shown.
Biological target: human GlyT1c transporter (Homo sapiens)
Construct: expressed in transfected cells; host or cells: CHO cells (recombinant; line hGlyT1c_5_CHO is named for the uptake assay)
Sequence (P48067 1-706): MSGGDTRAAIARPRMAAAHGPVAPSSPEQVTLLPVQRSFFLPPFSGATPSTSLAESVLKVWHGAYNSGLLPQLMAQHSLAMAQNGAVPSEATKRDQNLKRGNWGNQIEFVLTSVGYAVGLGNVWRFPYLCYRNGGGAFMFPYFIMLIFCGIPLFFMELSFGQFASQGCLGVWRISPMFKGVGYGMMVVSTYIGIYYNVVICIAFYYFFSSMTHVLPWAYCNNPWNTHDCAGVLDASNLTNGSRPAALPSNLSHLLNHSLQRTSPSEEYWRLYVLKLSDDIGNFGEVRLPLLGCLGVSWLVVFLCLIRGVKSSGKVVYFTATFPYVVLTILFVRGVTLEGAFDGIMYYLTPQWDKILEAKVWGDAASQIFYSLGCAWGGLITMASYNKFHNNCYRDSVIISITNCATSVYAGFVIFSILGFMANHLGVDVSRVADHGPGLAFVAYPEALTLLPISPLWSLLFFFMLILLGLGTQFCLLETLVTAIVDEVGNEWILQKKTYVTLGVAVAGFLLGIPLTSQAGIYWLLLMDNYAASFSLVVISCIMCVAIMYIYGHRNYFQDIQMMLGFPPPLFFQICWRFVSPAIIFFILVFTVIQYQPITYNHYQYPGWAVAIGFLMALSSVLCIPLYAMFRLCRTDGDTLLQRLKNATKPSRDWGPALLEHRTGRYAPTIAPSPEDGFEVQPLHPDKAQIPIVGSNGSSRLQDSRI
Assay: Radioligand binding assay using recombinant CHO cell membranes expressing human GlyT1
Details: radioligand binding to human GlyT1c transporter-expressing membranes

Use these answered entries as a reference point.
Cn1cnc(S(=O)(=O)N2C[C@H](NCCC3CCCC3)[C@@H](c3ccccc3)C2)c1
≤ 100 nM
N#Cc1cccc(N[C@@H]2CN(S(=O)(=O)c3ccc(C(F)(F)F)cc3)C[C@H]2c2ccccc2)c1 (relative stereo)
> 10000 nM
O=c1[nH]c2cc(S(=O)(=O)N3CC(Nc4ccc(F)c(F)c4)C(c4ccccc4)C3)ccc2o1 (stereo not drawn)
≤ 10000 nM
Cn1cnc(S(=O)(=O)N2C[C@H](Nc3ccc4c(c3)CCCC4)[C@@H](c3ccccc3)C2)c1
≤ 1000 nM

Report Ki for each item below.
1. CCOCCN[C@H]1CN(S(=O)(=O)c2cn(C)cn2)C[C@@H]1c1ccccc1
2. Cn1cnc(S(=O)(=O)N2C[C@@H](Nc3cc(C(F)(F)F)ccc3F)[C@H](c3ccc(F)cc3)C2)c1 (relative stereo)
3. Cn1cnc(S(=O)(=O)N2C[C@H](Nc3cccc(S(C)(=O)=O)c3)[C@@H](c3ccccc3)C2)c1
4. Cn1cnc(S(=O)(=O)N2C[C@@H](COc3cccc(C(F)(F)F)c3)[C@H](c3ccc(F)cc3)C2)c1 (relative stereo)
5. Cn1cnc(S(=O)(=O)N2C[C@H](Nc3cc(OCc4ccccc4)c(F)cn3)[C@@H](c3ccccc3)C2)c1

["≤ 10000 nM", "≤ 10000 nM", "≤ 1000 nM", "≤ 100 nM", "≤ 10 nM"]

----------
Molecular target: human GlyT1c transporter (Homo sapiens, UniProt P48067)
Construct: expressed in transfected cells; host or cells: CHO cells (recombinant; line hGlyT1c_5_CHO is named for the uptake assay)
Test: Radioligand binding assay using recombinant CHO cell membranes expressing human GlyT1
Conditions: radioligand binding to human GlyT1c transporter-expressing membranes
Text: 2. Radioligand binding assays using recombinant CHO cell membranes expressing human GlyT1: […]
property: Ki

Use these answered entries as a reference point.
Cc1ncc(S(=O)(=O)N2C[C@H](Nc3ccc(F)c(C(F)(F)F)c3)[C@@H](c3ccc(F)cc3)C2)n1C
≤ 10000 nM
Cn1cnc(S(=O)(=O)N2C[C@@H](N3Cc4cc(C(F)(F)F)ccc4NC3=O)[C@H](c3ccccc3)C2)c1 (relative stereo)
≤ 10000 nM
Cn1cnc(S(=O)(=O)N2C[C@H](NC(=O)NCc3ccccc3Cl)[C@@H](c3ccc(F)cc3)C2)c1
≤ 1000 nM
Cn1cnc(S(=O)(=O)N2C[C@@H](NC(=O)c3cccc(Cl)c3)[C@H](c3ccccc3)C2)c1 (relative stereo)
≤ 10000 nM
Cc1cccc(OC[C@@H]2CN(S(=O)(=O)c3cn(C)cn3)C[C@H]2c2ccc(F)cc2)c1 (relative stereo)
≤ 100 nM

Report Ki for each item below.
1. COCC(C)NC(=O)[C@@H]1CN(S(=O)(=O)c2cn(C)cn2)C[C@H]1c1ccc(F)cc1 (stereo partly shown)
2. Cn1cnc(S(=O)(=O)N2C[C@@H](NCc3ccc(C(F)(F)F)cc3Cl)[C@H](C3CCCCO3)C2)c1 (relative stereo)
3. Cn1cnc(S(=O)(=O)N2C[C@H](NCc3cc4cccnc4s3)[C@@H](c3ccccc3)C2)c1
4. Cn1cnc(S(=O)(=O)N2C[C@@H](NC(=O)c3cccc(C(F)(F)F)c3Cl)[C@H](c3ccc(F)cc3)C2)c1 (relative stereo)
5. Cn1cnc(S(=O)(=O)N2C[C@@H](Nc3cccc(OC(F)(F)F)c3)[C@H](C3CCCCC3)C2)c1 (relative stereo)
6. Cn1cnc(S(=O)(=O)N2C[C@@H]([C@@H]3CCCOC3)[C@H](Nc3ccc(Cl)c(OC(F)(F)F)c3)C2)c1 (relative stereo)

1. ≤ 10000 nM
2. ≤ 100 nM
3. ≤ 1000 nM
4. ≤ 100 nM
5. ≤ 10 nM
6. ≤ 10000 nM

Report Ki for each item below.
1. Cn1cnc(S(=O)(=O)N2CC(Cc3cccc(Cl)c3)C(c3ccc(F)cc3)C2)c1 (stereo not shown)
2. Cc1ccc(C(=O)N[C@@H]2CN(S(=O)(=O)c3cn(C)cn3)C[C@H]2c2ccccc2)cc1 (relative stereo)
3. Cc1cc(N[C@H]2CN(S(=O)(=O)c3cn(C)cn3)C[C@@H]2c2ccc(F)cc2)ccc1C(F)(F)F
4. CC(C)CCN[C@H]1CN(S(=O)(=O)c2cn(C)cn2)C[C@@H]1c1ccccc1
5. CCCCCCN[C@H]1CN(S(=O)(=O)c2cn(C)cn2)C[C@@H]1C1CCCCO1 (stereo partly shown)

1: ≤ 100 nM; 2: ≤ 10000 nM; 3: ≤ 1000 nM; 4: ≤ 1000 nM; 5: ≤ 1000 nM

Hey, just so you know, these numbers are from patent EP2970215B1.
